- Tested on: cotton aphid (Aphis gossypii)
- experimental_protocol: Translaminar insecticidal activity test on cotton leaves, N-oxides versus free amines
- Assay type: in vivo
- condition: Aphis gossypii, 72 h, read-out: Percent Mortality at Day After treatment (DAT), 3 DAT

# compound, mortality at 500 ppm
records = [
    ("Cc1noc(C2CN3CCC2C3)n1 (stereo not shown) [Compound B, reference compound]", "< 50%"),
    ("Cc1nnn(C2C[N+]3([O-])CCC2CC3)n1 (stereo not shown)", "50 to 80%"),
    ("Cc1nnn(C2CN3CCC2CC3)n1 (stereo not shown)", "< 50%"),
    ("CCc1noc(C2CN3CCC2C3)n1 (stereo not shown)", "< 50%"),
]
